Target or system UniProt:P0C6X7; recorded quantity IC50.

>>> result("OCC1Cc2c(-c3ccc(Cl)cn3)cccc2-c2c(O)ccc(-c3ccc(Br)cc3)c21 (stereo not drawn)")
"10.5 µM"

Would you mind giving IC50 for every molecule in the list below?
1. CC(=O)OCC1Cc2c(-c3cc(C=O)ccn3)cccc2-c2c(O)ccc(-c3ccc(Br)cc3)c21 (stereo not drawn)
2. O=Cc1ccnc(-c2cccc3c2CC(CO)c2c(-c4ccc(Br)cc4)ccc(O)c2-3)c1 (stereo not drawn)

1. 3.2 µM
2. 5.32 µM

* * *

Experimental system: Replicase polyprotein 1ab (Severe acute respiratory syndrome coronavirus 2, UniProt P0DTD1)
Consider the following compounds; for each one, report its IC50.
Numbers only, in µM.

>>> result_number("CC(=O)OCC1Cc2c(-c3cc4ccccc4cn3)cccc2-c2c(O)ccc(C)c21 (stereo not given)")
12
>>> result_number("CC(=O)OCC1Cc2c(-c3cc(C)ccn3)cccc2-c2c(O)ccc(-c3ccc(Br)cc3)c21 (stereo not given)")
9.82
>>> result_number("CC(=O)OCC1Cc2c(-c3ccc(Br)cn3)cccc2-c2c(O)ccc(-c3ccc(Br)cc3)c21 (stereo not given)")
6.73

Query compound follows.
Reported IC50, compound CC(=O)OCC1Cc2c(-c3ccc(Cl)cn3)cccc2-c2c(O)ccc(C)c21 (stereo not given) : ____
35.8

* * *

Experimental system: Replicase polyprotein 1ab (Severe acute respiratory syndrome coronavirus 2)
Recorded endpoint: IC50 (µM)
Answers are plain numbers, in µM.

>>> result_number("CC(=O)OCC1Cc2c(-c3ccc(F)cn3)cccc2-c2c(O)ccc(-c3ccc(Br)cc3)c21 (configuration not stated)")
4.29

Consider the following items and state reported IC50 for each.
1. CC(=O)OCC1Cc2c(-c3ccc(C)cn3)cccc2-c2c(O)ccc(-c3ccc(Br)cc3)c21 (configuration not stated)
2. CC(=O)OCC1Cc2c(-c3ccccn3)cccc2-c2c(O)ccc(C(C)C)c21 (configuration not stated)
3. CC(=O)OCC1Cc2c(cccc2-c2nccc3ccccc23)-c2c(O)ccc(C)c21 (configuration not stated)

1: 5.25; 2: 29.5; 3: 14.2

* * *

Experimental system: Replicase polyprotein 1ab (Severe acute respiratory syndrome coronavirus 2, UniProt P0DTD1)
Recorded endpoint: IC50 (µM)
Numbers only, in µM.

// input: 5 molecules below; output: IC50 for each
1. CC(=O)OCC1Cc2c(ccc(C)c2-c2ccccn2)-c2c(O)ccc(C)c21 (stereo not drawn)
2. CC(=O)OCC1Cc2c(-c3ccc(-c4ccccc4)cn3)cccc2-c2c(O)ccc(-c3ccc(Br)cc3)c21 (stereo not drawn)
3. CC(=O)OCC1Cc2c(-c3ccc4ccccc4n3)cccc2-c2c(O)ccc(C)c21 (stereo not drawn)
4. OCC1Cc2c(-c3ccc(F)cn3)cccc2-c2c(O)ccc(-c3ccc(Br)cc3)c21 (stereo not drawn)
5. CC(=O)OCC1Cc2c(-c3cc(N4CCCC4)ccn3)cccc2-c2c(O)ccc(-c3ccc(Br)cc3)c21 (stereo not drawn)

1. 53.8
2. 8.28
3. 13.8
4. 5.39
5. 11.2

* * *

Experimental system: UniProt P0DTD1
pIC50: −log10 of the molar value.
Recorded endpoint: pIC50

>>> result("CC(=O)OCC1Cc2c(-c3ccccn3)ccc(C)c2-c2c(O)ccc(C)c21 (stereo not drawn)")
"< 4.00"

Parameters: items (list). Returns: pIC50 for each item.
1. COc1ccc(-c2ccccn2)c2c1-c1c(O)ccc(C)c1C(COC(C)=O)C2 (stereo not drawn)
2. CC(=O)OCC1Cc2c(-c3ccccn3)ccc(F)c2-c2c(O)ccc(C)c21 (stereo not drawn)

1: < 4.00; 2: < 4.00

Data credit: ChEMBL document CHEMBL5154667
